Provenance of the data: patent US7642364B2

Each entry below lists one item and its recorded control against cucumber downy mildew value.
- System: cucumber downy mildew
- assay_details: Fungicidal activity on potted plants, cucumber downy mildew
- Assay type: in vivo
- condition_details: 200 ppm, spray on potted plant
reported_metric: control against cucumber downy mildew (%)

1) COC=C(C(=O)OC)c1ccccc1COc1ccc2c(C)c(Cc3ccccc3)c(=O)oc2c1C [Compound 69]
100
2) CCCCc1c(C)c2ccc(OCc3ccccc3C(=COC)C(=O)OC)cc2oc1=O [Compound 402]
100
3) COC=C(C(=O)OC)c1ccccc1COc1ccc2c(-c3ccccc3)cc(=O)oc2c1 [Compound 52]
100
4) CCCc1cc(=O)oc2cc(OCc3ccccc3C(=COC)C(=O)OC)ccc12 [Compound 34]
100
5) CCCc1cc(=O)oc2c(C)c(OCc3ccccc3C(=COC)C(=O)OC)ccc12 [Compound 35]
100
6) CCCCc1c(C)c2ccc(OCc3ccccc3C(=NOC)C(=O)OC)cc2oc1=O [Compound 413]
100
7) COC=C(C(=O)OC)c1ccccc1COc1ccc2c(C)c(Cl)c(=O)oc2c1 [Compound 12]
100
8) CCCCCCc1c(C)c2ccc(OCc3ccccc3C(=COC)C(=O)OC)cc2oc1=O [Compound 405]
100
9) COC=C(C(=O)OC)c1ccccc1COc1ccc2c(COC)cc(=O)oc2c1 [Compound 19]
100
10) COC=C(C(=O)OC)c1ccccc1COc1ccc2c(C)cc(=O)oc2c1 [Compound 2]
100
11) CON=C(C(=O)OC)c1ccccc1COc1ccc2c(C)c(Cl)c(=O)oc2c1C [Compound 109]
100
12) COC=C(C(=O)OC)c1ccccc1COc1ccc2c(C)c(Cl)c(=O)oc2c1C [Compound 25]
100
13) CCCc1c(C)c(=O)oc2cc(OCc3ccccc3C(=COC)C(=O)OC)ccc12 [Compound 37]
100
14) CCCc1c(CCC)c2ccc(OCc3ccccc3C(=COC)C(=O)OC)cc2oc1=O [Compound 409]
100
15) COC=C(C(=O)OC)c1ccccc1COc1ccc2c(C)c(C)c(=O)oc2c1C [Compound 6]
100
16) COC=C(C(=O)OC)c1ccccc1COc1ccc2c(C)c(F)c(=O)oc2c1 [Compound 50]
100
17) COC=C(C(=O)OC)c1ccccc1COc1ccc2ccc(=O)oc2c1 [Compound 1]
100
18) COC=C(C(=O)OC)c1ccccc1COc1ccc2c(C)c(C)c(=O)oc2c1 [Compound 5]
100
